Listed next: entries and their corresponding NanoBRET Abs IC50.
Biological target: T1, B-cat-Halo (beta-catenin HaloTag construct expressed in HEK293 cells) (UniProt P35222 1-781)
T1 sequence (looked up): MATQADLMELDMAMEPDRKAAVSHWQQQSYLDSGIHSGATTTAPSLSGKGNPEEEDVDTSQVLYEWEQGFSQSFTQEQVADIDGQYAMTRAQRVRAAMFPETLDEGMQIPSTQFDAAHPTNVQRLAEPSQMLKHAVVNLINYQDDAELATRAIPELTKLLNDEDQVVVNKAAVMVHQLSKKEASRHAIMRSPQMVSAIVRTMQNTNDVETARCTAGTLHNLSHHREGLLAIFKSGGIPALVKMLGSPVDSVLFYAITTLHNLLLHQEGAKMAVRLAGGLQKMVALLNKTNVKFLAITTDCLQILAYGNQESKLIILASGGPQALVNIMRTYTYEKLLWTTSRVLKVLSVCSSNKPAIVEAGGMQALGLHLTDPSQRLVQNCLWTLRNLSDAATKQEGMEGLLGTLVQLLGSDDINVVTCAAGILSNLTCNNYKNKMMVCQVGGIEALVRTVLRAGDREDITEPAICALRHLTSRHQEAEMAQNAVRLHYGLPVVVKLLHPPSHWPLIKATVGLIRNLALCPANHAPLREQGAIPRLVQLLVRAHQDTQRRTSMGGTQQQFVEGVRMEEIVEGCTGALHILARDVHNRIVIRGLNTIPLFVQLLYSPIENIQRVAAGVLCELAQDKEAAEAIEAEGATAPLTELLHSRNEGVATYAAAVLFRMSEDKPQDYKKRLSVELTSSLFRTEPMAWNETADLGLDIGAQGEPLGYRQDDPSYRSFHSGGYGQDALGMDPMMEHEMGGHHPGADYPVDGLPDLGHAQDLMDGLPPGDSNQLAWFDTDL
Assay: cell-based or functional assay
Starred links: 1 amine or outer side, 2 acyl side, 3 side chain; linkers in the order of their positions; H or OH if unused. Positions of bridges follow the written chain, without caps; N, C: chain ends. Non-standard residues stand in square brackets, D forms with d. Primed or numbered codes have the meaning given here. PyrS2″ = (S)-3-amino-1-((pent-4-en-1-yloxy)carbonyl)pyrrolidine-3-carboxylic acid (stapling residue), C=CCCCOC(=O)N1CC[C@@](N[*:1])(C(=O)[*:2])C1; B5(4) = 2,2-bis(4-pentenyl)glycine = 2-amino-2-(pent-4-en-1-yl)hept-6-enoic acid (stitching residue), C=CCCCC(CCCC=C)(N[*:1])C(=O)[*:2]; TfeGA = (S)-2-amino-3-((carboxymethyl)(2,2,2-trifluoroethyl)amino)propanoic acid, O=C([C@H](CN(CC(=O)[*:3])CC(F)(F)F)N[*:1])[*:2]; Me2Asn = listed as N4-methyl-L-asparagine, CNC(=O)C[C@H](N[*:1])C(=O)[*:2]; Phe(3-COOH) = N[C@@H](Cc1cccc(C(=O)O)c1)C(=O)O; Bta = N[C@@H](Cc1csc2ccccc12)C(=O)O; αAllylPro = C=CC[C@@]1(C(=O)O)CCCN1; tBuAla = CC(C)(C)C[C@H](N)C(=O)O; 3Thi = N[C@@H](Cc1ccsc1)C(=O)O; PyrS2(4) = not defined here; 34ClF = not defined here; Nle = CCCC[C@H](N)C(=O)O; Aib = CC(C)(N)C(=O)O
Express it in µM; write the number only.

binder="Ac-[αAllylPro]D[tBuAla][B5(4)]DDAAFL[PyrS2″][3Thi][34ClF]Q-NH2 (staple 1-4, 4-11; reading uncertain; also: printed as Ac-PL3-Asp-Npg-B5-Asp-Asp-Ala-Ala-Phe-Leu-PyrS2-3Thi-34C1F-Gln-NH2) [I-2183]" experimental_readout="NanoBRET Abs IC50" endpoint_result=5

Please give the measured NanoBRET Abs IC50 for this binder: Ac-[αAllylPro]D[tBuAla][B5(4)]D[Phe(3-COOH)][Nle]AFL[PyrS2″][3Thi][Bta][tBuAla]-NH2 (staple 1-4, 4-11) [I-2193] 39.9

How about Ac-[αAllylPro]D[tBuAla][B5(4)]D[Phe(3-COOH)]QAFL[PyrS2″][3Thi][Bta][tBuAla]-NH2 (staple 1-4, 4-11) [I-2192] ? 16.1

Also check Ac-[αAllylPro]D[tBuAla][B5(4)]D[Phe(3-COOH)][Me2Asn]AFL[PyrS2″][3Thi][Bta]V-NH2 (staple 1-4, 4-11) [I-2191] 29.5

What do you have for Ac-[αAllylPro]D[tBuAla][B5(4)]D[Phe(3-COOH)]SAFL[PyrS2(4)][3Thi][Bta]V-NH2 (staple 1-4, 4-11; reading uncertain; also: printed as Ac-PL3-Asp-Npg-B5-Asp-3COOHF-Ser-Ala-Phe-Leu-PyrS2-3Thi-BztA-Val-NH2) [I-2190] ? 33.4

What do we get for Ac-[αAllylPro]D[tBuAla][B5(4)]D[Phe(3-COOH)][Aib]AFL[PyrS2″][3Thi][Bta][tBuAla]-NH2 (staple 1-4, 4-11) [I-2194] ? 8.8

// next record Ac-[αAllylPro]D[tBuAla][B5(4)]D[TfeGA]AAFL[PyrS2″][3Thi][Bta]Q-NH2 (staple 1-4, 4-11; not fully specified (residue 9); also: later-eluting HPLC isomer peak) [I-2185] 6.1

Same question, Ac-[αAllylPro]D[tBuAla][B5(4)]DDAAFN[PyrS2″][3Thi][34ClF]Q-NH2 (staple 1-4, 4-11; reading uncertain; also: printed as Ac-PL3-Asp-Npg-B5-Asp-Asp-Ala-Ala-Phe-Asn-PyrS2-3Thi-34C1F-Gln-NH2) [I-2182] this time 11.1
